Biological target: DNA dC->dU-editing enzyme APOBEC-3G (Homo sapiens, UniProt Q9HC16)
Sequence (Q9HC16 whole entry): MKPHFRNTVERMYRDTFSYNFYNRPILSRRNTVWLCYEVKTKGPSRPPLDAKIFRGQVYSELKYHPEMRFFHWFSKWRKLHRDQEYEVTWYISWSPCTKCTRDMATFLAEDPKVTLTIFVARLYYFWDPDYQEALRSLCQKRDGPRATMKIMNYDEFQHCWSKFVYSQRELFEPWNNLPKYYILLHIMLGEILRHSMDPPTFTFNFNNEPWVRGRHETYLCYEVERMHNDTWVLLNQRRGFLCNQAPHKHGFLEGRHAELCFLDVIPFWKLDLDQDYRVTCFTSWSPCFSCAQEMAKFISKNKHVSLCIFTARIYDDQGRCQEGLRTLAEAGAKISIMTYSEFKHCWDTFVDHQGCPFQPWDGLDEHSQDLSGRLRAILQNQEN
Experiment: Dose Response confirmation of small molecule APOBEC3G DNA Deaminase Inhibitors via a fluorescence-based single-stranded DNA deaminase assay. [Related pubchem assays (depositor defined):AID493012, AID493028]
Format: functional
Activity calls are given as the source filed them.

given.smiles: O=C(NC1CCCCCC1)c1ccc[nH]c1=S
system.under.test: DNA dC->dU-editing enzyme APOBEC-3G (Homo sapiens, UniProt Q9HC16)
IC50: 21.9 µM (active)
--
given.smiles: Fc1cccc(-c2n[nH]c(=S)n2-c2ccccc2)c1
system.under.test: DNA dC->dU-editing enzyme APOBEC-3G (Homo sapiens, UniProt Q9HC16)
IC50: 4.26 µM (active)
--
given.smiles: O=C(Nc1cccc(S(=O)(=O)Nc2ccccc2F)c1)c1ccc2ccccc2n1
system.under.test: DNA dC->dU-editing enzyme APOBEC-3G (Homo sapiens, UniProt Q9HC16)
IC50: 15.6 µM (active)
--
given.smiles: Cc1[nH]c(=S)c(C#N)c(C)c1CCC#N
system.under.test: DNA dC->dU-editing enzyme APOBEC-3G (Homo sapiens, UniProt Q9HC16)
IC50: 9.7 µM (active)
--
given.smiles: CC1(C)Cc2ccccc2-c2n[nH]c(=S)n21
system.under.test: DNA dC->dU-editing enzyme APOBEC-3G (Homo sapiens, UniProt Q9HC16)
IC50: 4.33 µM (active)
--
given.smiles: COc1ccc(-c2nnc(S)[nH]2)cc1
system.under.test: DNA dC->dU-editing enzyme APOBEC-3G (Homo sapiens, UniProt Q9HC16)
IC50: 1.95 µM (active)

----------
Assay: HepG2 cell cytotoxicity, dose response, cytotoxicity control, plate reader, cherry-pick, antagonist series (AID 743416)
Assay type: functional, cell-based
Calls of active or inactive are those of the source.
Outcomes: active, inactive

molecule: O=C(Nc1nc(-c2ccccc2)cs1)c1ccccc1NS(=O)(=O)c1ccc(F)cc1
class.name: active

molecule: Cc1cc2ncc(-c3cccs3)nc2cc1C
class.name: inactive

molecule: COc1cc(CNCCO)cc(Cl)c1OCc1ccc(Cl)cc1Cl
class.name: active

molecule: OC[C@H]1[C@@H](c2ccc(-c3ccc(F)cc3)cc2)[C@@H]2CN(Cc3ccccn3)CCCCN12
class.name: active

molecule: Cc1ccc2nc(NC(=O)c3ccccn3)sc2c1
class.name: active

molecule: Cc1ccccc1OCCCN1CCC(C(O)(c2ccccc2)c2ccccc2)CC1
class.name: active

molecule: NC(c1ccccc1)c1csc(NC(=O)Nc2cccc(Cl)c2)n1 (configuration not stated)
class.name: active

----------
Target: Troponin, cardiac muscle (Homo sapiens, UniProt P19429+P45379+P63316)
Assay: Fluorescence-based biochemical high throughput dose response assay for activators of the calcium sensitivity of cardiac Regulated Thin Filaments (RTF). [Related pubchem assays (depositor defined):AID493008, AID493018, AID504382, AID504383]
Assay type: protein-complex assay
Activity calls are given as the source filed them.
Outcomes: T = active, F = inactive

given.smiles: CCOC(=O)/C(=C/C=C1\Sc2cc(OCC)c(OCC)cc2N1CC)C(C)=O
class.name: T
--
given.smiles: Cc1ccnc(N/C=C(\C#N)c2nc(-c3cccc(Br)c3)cs2)c1
class.name: T
--
given.smiles: Cc1c(O)c2c3c(cccc3c1O)C(=O)N(c1ccccc1)C2=O
class.name: T
--
given.smiles: O=C(CN1CCN(c2ccccc2F)CC1)Nc1cccnc1Cl
class.name: F
